experiment: Stability in human CEM cells extracts at pH 6.9 assessed as hydrolysis half life; type: ADME, CCRF-CEM; conditions: CEM cell extracts
Below, each entry is listed with its recorded half-life.

# molecule, half-life
data = [
    ("Cc1cn([C@H]2C=C[C@@H](CO[P@@]3(=O)OCc4cc(C(OC(=O)C(C)C)OC(=O)C(C)C)cc(C(C)(C)C)c4O3)O2)c(=O)[nH]c1=O", "48 min"),
    ("CC(=O)OC(OC(C)=O)c1cc2c(c(C(C)(C)C)c1)OP(=O)(OC[C@@H]1C=C[C@H](n3cc(C)c(=O)[nH]c3=O)O1)OC2 (stereo partly drawn)", "9 min"),
    ("Cc1cc(C(OC(=O)C(C)C)OC(=O)C(C)C)cc2c1OP(=O)(OC[C@@H]1C=C[C@H](n3cc(C)c(=O)[nH]c3=O)O1)OC2 (stereo partly drawn)", "30 min"),
]

###

Below, each entry is listed with its recorded half-life.
assay: Stability in human CEM cells extracts at pH 6.9 assessed as hydrolysis half life; type: ADME, CCRF-CEM; settings: CEM cell extracts

# molecule, operator, half-life (min)
rows = [
    ("CC(=O)OC(OC(C)=O)c1cc(C)cc2c1OP(=O)(OC[C@@H]1C=C[C@H](n3cc(C)c(=O)[nH]c3=O)O1)OC2 (stereo partly specified)", "=", 15),
    ("CC(=O)OC(OC(C)=O)c1cc2c(c(C(C)(C)C)c1)O[P@@](=O)(OC[C@@H]1C=C[C@H](n3cc(C)c(=O)[nH]c3=O)O1)OC2", "=", 9),
    ("Cc1cn([C@H]2C=C[C@@H](CO[P@]3(=O)OCc4cc(C(OC(=O)C(C)C)OC(=O)C(C)C)cc(C(C)(C)C)c4O3)O2)c(=O)[nH]c1=O", "=", 60),
    ("CC(=O)OC(OC(C)=O)c1cc2c(c(C(C)(C)C)c1)O[P@](=O)(OC[C@@H]1C=C[C@H](n3cc(C)c(=O)[nH]c3=O)O1)OC2", "=", 18),
    ("Cc1cn([C@H]2C=C[C@@H](COP3(=O)OCc4cc(C(OC(=O)C(C)C)OC(=O)C(C)C)cc(C(C)(C)C)c4O3)O2)c(=O)[nH]c1=O (stereo partly specified)", "=", 60),
    ("CC(=O)OC(OC(C)=O)c1cc(C(C)(C)C)cc2c1OP(=O)(OC[C@@H]1C=C[C@H](n3cc(C)c(=O)[nH]c3=O)O1)OC2 (stereo partly specified)", "<", 6),
]

###

assay: Stability in aqueous 25 mM phosphate buffer at pH 7.6 assessed as hydrolysis half life; assay type: physicochemical
Below, each entry is listed with its recorded half-life.

# compound, half-life / h
measured = [
    ("Cc1cn([C@H]2C=C[C@@H](CO[P@@]3(=O)OCc4cc(C(OC(=O)C(C)C)OC(=O)C(C)C)cc(C(C)(C)C)c4O3)O2)c(=O)[nH]c1=O", 2.9),
    ("CC(=O)OC(OC(C)=O)c1cc(C)cc2c1OP(=O)(OC[C@@H]1C=C[C@H](n3cc(C)c(=O)[nH]c3=O)O1)OC2 (some centres undefined)", 1.1),
    ("CC(=O)OC(OC(C)=O)c1cc(C(C)(C)C)cc2c1OP(=O)(OC[C@@H]1C=C[C@H](n3cc(C)c(=O)[nH]c3=O)O1)OC2 (some centres undefined)", 1.2),
    ("CC(=O)OC(OC(C)=O)c1cc(C)c2c(c1)COP(=O)(OC[C@@H]1C=C[C@H](n3cc(C)c(=O)[nH]c3=O)O1)O2 (some centres undefined)", 1.9),
]

From: ChEMBL document CHEMBL1142496
